Test details: NCI Yeast Anticancer Drug Screen. Data for the mec2-1 strain (AID 157)
Cond: S. cerevisiae mec2-1 strain, stronger effect = higher value; at 50.0 µM unless noted
This is part of a sample that, as a whole, favours compounds with a hit. Of some 79,000 tested, about 15% had one in any assay.
Each entry below carries its reported growth inhibition.
Recorded metric: growth inhibition (%)

> print(dat)
                                   compound    recorded.metric  units.symbol  endpoint.value
1  O=S1(=O)C2C=CC1C(Br)C(Br)CC2 (configuration not stated)  growth inhibition             %            13.9
2      OCC1COCO1 (configuration not stated)  growth inhibition             %            -4.1
3  CCOC(=O)Cn1c(=O)[nH]c(=O)c2c1ncn2Cc1ccccc1  growth inhibition             %           -2.35
4  CC1CC[N+](C)(CC(=O)c2ccc(-c3ccc(C(=O)C[N+]4(C)CCC(C)CC4)cc3)cc2)CC1 (configuration not stated)  growth inhibition             %             1.4
5            NC(=S)/N=C/c1c(O)c2ccccc2oc1=O  growth inhibition             %            3.95
6  CC(=O)OC1CC2CC1C1OC21 (configuration not stated)  growth inhibition             %           -15.3
7                   Cc1ccccc1C(=O)c1ccccc1C  growth inhibition             %           -9.95

----------
Test details: NCI Yeast Anticancer Drug Screen. Data for the rad50 strain (AID 155);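 further: 0% = growth of vehicle-only cultures of the same strain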
Cond: S. cerevisiae rad50 strain growth inhibition, stronger effect = higher value; at 50.0 µM unless noted
This is part of a sample that, as a whole, favours compounds with a hit. Of some 79,000 tested, about 15% had one in any assay.
Each entry below carries its reported growth inhibition.

Compound	growth inhibition (%)
O=C(CCCN1CCC2(CC1)CC(=O)N(N1CCOCC1)C2=O)c1ccc(F)cc1	-4.65
Nc1ccccc1C1CCCCC1	32.1
COc1ccc(/C(=C(/c2ccc(OC)cc2)C2CC2)C2CC2)cc1	-5.3
C/C=C(\C)c1cc(=O)c2c(C)cc3c(c2o1)C(OC)(OC(C)=O)c1c(O)c(C2CC(C)(N(C)C)C(OC(C)=O)C(C)O2)cc(C2CC(N(C)C)C(OC(C)=O)C(C)O2)c1C3=O (stereo unspecified)	-23.9
Nc1nc(Cl)c(N)c(NCC2(CO)CC(Cc3ccccc3)C2)n1 (stereo unspecified)	26.4
CC(C)(C)OC(=O)N1CCC2(CC1)C(=O)NCN2c1ccccc1	23.4

----------
Test details: NCI Yeast Anticancer Drug Screen. Data for the cln2 rad14 strain (AID 165);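 further: 0% = growth equal to vehicle treated cultures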
Cond: S. cerevisiae cln2 rad14 strain; at 50.0 µM unless noted
About 79,000 compounds went through this panel and 15% of them were active in at least one assay; those are over-represented in the sample as a whole. The source made the active and inactive calls. Rule as the data show it: active = growth inhibition above about 70%; inactive = the rest.
Outcomes: True (active), False (inactive)

Compound	Discrete label
Nc1ncnc2c1ncn2CC(O)CN(CCO)CCO (stereo unspecified)	False
CCC(=O)C1(C)OC1C(C)CC(C)C1OC(=O)CC2(O)CC=C(C)C(O2)/C(C)=C/CCCC(OC2CC(OC(N)=O)C(O)C(C)O2)/C=C/C(C)C(O)C1C (stereo unspecified)	True
CCOC(=O)C(CC(C)C)NC(=O)c1ccc(C)c(OCc2ccccc2)c1[N+](=O)[O-] (stereo unspecified)	False
CN(C)c1ccc(C(=O)Cc2ccc3ccccc3n2)cc1	True
O=S(=O)(N/N=C/c1cccc(Cl)c1Cl)c1ccccc1	False
O=[N+]([O-])c1cccc(Br)c1	False
COc1cc2c(cc1OC)C1C(C)c3ccc(OC)c(OC)c3CN1CC2 (stereo unspecified)	False
CC(C)(C)C(=O)Oc1ccc([N+](=O)[O-])cc1	False
COCCOC(=O)OCCOC	False
CCOC(=O)C1=CN=C2C(=O)N(c3ccccc3)N(C)C2(C)C1=N (stereo unspecified)	False
O=C(O)COc1ccc([N+](=O)[O-])cc1[N+](=O)[O-]	False

----------
Each entry below carries its reported growth inhibition.
Test details: NCI Yeast Anticancer Drug Screen. Data for the bub3 strain (AID 167)
Cond: S. cerevisiae bub3 mutant strain, stronger effect = higher value; at 50.0 µM unless noted
Description: Growth inhibition of yeast strains with defined genetic alterations is measured as a screen for potential anti-cancer activity. Selected strains with alterations in DNA damage repair or cell cycle control were exposed to compounds and growth inhibition was measured relative to vehicle treated controls. The strain used in this assay is bub3
Compounds without any hit were thinned out: in the full panel of roughly 79,000, 15% have a hit.
Recorded metric: growth inhibition (%)

> print(dat)
                                   compound    recorded.metric  units.symbol  endpoint.value
1    c1ccc2c(c1)C(=NCCCN1CCCCCCC1)c1cccn1-2  growth inhibition             %            23.1
2  CCC/C(=N\NC(=S)N1CCN(c2ccccn2)CC1)c1ccccn1  growth inhibition             %            20.9
3     Nn1c(N=Nc2c(O)[nH]c3ccccc23)n[nH]c1=S  growth inhibition             %            6.35
4  CCCCCCC(/C=N/NC(=O)CCCCCCCCC(=O)N/N=C/C(=C/c1ccccc1)CCCCCC)=C\c1ccccc1  growth inhibition             %           -1.45
5         Cc1cc(Cl)ccc1NC(=O)Oc1ccc(C#N)cc1  growth inhibition             %           -17.1
6  C=C1C=C2CCC3C(CCC4(C)C(C(C)CCCC(C)C)CCC34)C2(C)CC1 (stereo unspecified)  growth inhibition             %            28.2

----------
Test details: NCI Yeast Anticancer Drug Screen. Data for the mlh1 rad18 strain (AID 175)
Cond: S. cerevisiae mlh1 rad18 strain growth inhibition, stronger effect = higher value; at 50.0 µM unless noted
This is part of a sample that, as a whole, favours compounds with a hit. Of some 79,000 tested, about 15% had one in any assay.
Recorded metric: growth inhibition (%)

> print(dat)
                                    compound  endpoint.value
 1                       N#CCNC(=O)Cc1ccccc1            -4.7
 2               CCCCCCCCCCCCCCCCCCOc1ccccn1            3.25
 3  O=S1(=O)C(=C(c2ccccc2)c2ccccc2)S(=O)(=O)c2ccccc21            29.1
 4                CCCCCOC(=O)c1ccc(C(C)C)cc1             5.1
 5                O=C(O)/C=C(/CC(=O)O)C(=O)O           -7.45
 6  CCN(CC)CCC1CCCCN1CC(=O)N1c2ccccc2NC(=O)c2ccccc21 (configuration not stated)            0.25
 7  COc1ccc(CCNS(=O)(=O)c2c(C)c(C)c(C)c(C)c2C)cc1OC             6.8
 8  CCCCCC1CC(C(C)=O)CN1c1ccc(F)cc1 (configuration not stated)              -2
 9  ONc1ccc2c(c1)C1C(C3C2C2(Cl)C(Cl)=C(Cl)C3(Cl)C2(Cl)Cl)C2(Cl)C(Cl)=C(Cl)C1(Cl)C2(Cl)Cl (configuration not stated)            24.6
10                              ClCCCSSCCCCl            3.85
11                 O=C(O)c1cc(Cl)c2ccccc2c1O            33.1
12                             SCCNCc1ccccc1            10.2

----------
Test details: NCI Yeast Anticancer Drug Screen. Data for the mec2-1 strain (AID 157)
Cond: S. cerevisiae mec2-1 strain, stronger effect = higher value; at 50.0 µM unless noted
This is part of a sample that, as a whole, favours compounds with a hit. Of some 79,000 tested, about 15% had one in any assay.
Recorded metric: growth inhibition (%)

> print(dat)
                                    compound  endpoint.value
 1  CCc1ccc(-c2cc(-c3ccc(CC)cc3)cc(-c3ccc(CC)cc3)c2)cc1           -10.1
 2  CN1C(=O)N(C2CCCCC2)C(=O)C(C)(CN2CCCCC2)C1=O (configuration not stated)            14.1
 3             O=C1N=C2Sc3ccc4ccccc4c3N2C1=O            2.55
 4  CC(=O)OC(C#N)c1ccco1 (configuration not stated)           -49.1
 5  Cc1cc(N(CCCCl)CCCCl)ccc1C=Nc1cc(Cl)c(O)c(Cl)c1            6.15
 6           Cc1cc(N)ccc1-c1cc(C)c(N)c(C)c1C           -21.9
 7    CCSC(=Nc1nc2ccc([N+](=O)[O-])cc2s1)SCC            31.4
 8  N#CC(C#N)=C1SC(=Nc2ccccc2)C(=Nc2ccccc2)N1c1ccccc1            6.05
 9  Nc1nnc2nc(C(C(=O)c3ccc(F)cc3)c3nc4nnc(N)n4[nH]c3=O)c(=O)[nH]n12            4.15
10                          C1CCC2=NCCCN2CC1             -23
11  CCCCCCCS(=O)c1nc2ccccc2s1 (configuration not stated)            15.2
12  Cc1ccc(NC(=O)Oc2ccc(C(C)(C)C)cc2)cc1NC(=O)Oc1ccc(C(C)(C)C)cc1           -29.4
